# assayed-system: human mAChR M1 (Homo sapiens)
# Sequence (P11229 whole entry): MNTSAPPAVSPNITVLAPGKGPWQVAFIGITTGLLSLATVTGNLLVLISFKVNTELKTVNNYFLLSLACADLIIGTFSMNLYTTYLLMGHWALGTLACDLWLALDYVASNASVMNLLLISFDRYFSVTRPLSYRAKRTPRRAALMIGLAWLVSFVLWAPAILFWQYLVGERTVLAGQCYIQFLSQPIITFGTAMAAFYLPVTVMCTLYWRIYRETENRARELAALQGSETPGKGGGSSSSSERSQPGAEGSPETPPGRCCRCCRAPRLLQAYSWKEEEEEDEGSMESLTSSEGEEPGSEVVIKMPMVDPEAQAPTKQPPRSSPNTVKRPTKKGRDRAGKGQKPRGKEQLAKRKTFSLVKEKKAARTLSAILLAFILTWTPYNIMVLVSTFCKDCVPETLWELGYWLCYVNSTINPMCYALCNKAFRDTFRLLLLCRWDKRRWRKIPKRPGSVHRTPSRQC
# experimental-protocol: mAChR M1 cell-based functional assay (calcium mobilization), PAM activity: increase in the EC20 acetylcholine response
# condition-label: CHO-K1 cells expressing hM1; calcium flux (Fluo-4); potentiation of EC20 acetylcholine response
reported-metric: Emax (%)
I only need the number, in %, no unit after it.

Query: Emax for Cc1c(Cc2ccc(-c3ccn(C)n3)cc2)cc(C(=O)N[C@H]2CCC[C@@H]2O)nc1-c1ccn(C)n1 [Compound 12] ?
Result: 86

Query: Bench note: what Emax did Cc1c(Cc2ccc(-c3cnn(C)c3)nc2)cc(C(=O)N[C@H]2CCCC[C@@H]2O)nc1-n1cccn1 [Compound 47] show?
Result: 85

Query: What value of Emax has been recorded for this entry: Cc1c(Cc2ccc(-c3ccn(C)n3)cc2)cc(C(=O)NC2CCOCC2)nc1-c1ccn(C)n1 [Compound 1]
Result: 85

Query: Which Emax reading was recorded for the molecule Cc1c(Cc2ccc(-c3ccn(C)n3)cc2)cc(C(=O)NCC2CCOCC2)nc1-c1ccn(C)n1 [Compound 14] ?
Result: 74

Query: Would you mind telling me what Emax value was observed for Cc1c(Cc2ccc(-c3ccn(C)n3)cc2)cc(C(=O)N[C@H]2CC[C@@H]2O)nc1-c1ccn(C)n1 [Compound 13] ?
Result: 80

Query: For the molecule Cc1c(Cc2ccc(-c3ccn(C)n3)cc2)cc(C(=O)N[C@H]2CCOC[C@@H]2O)nc1-c1ccn(C)n1 [Compound 9] , what Emax is on record?
Result: 86

Query: Could you tell me which Emax is on file for Cc1c(Cc2ccc(-c3cnn(C)c3)nc2)cc(C(=O)NC2CCOCC2)nc1-n1cccn1 [Compound 50] ?
Result: 65

Query: Would you kindly share the measured Emax for Cc1nc(-c2ccc(Cc3cc(C(=O)N[C@H]4CCOC[C@@H]4O)nc(-n4cccn4)c3)cc2)co1 [Compound 19] ?
Result: 88

Query: What value of Emax has been recorded for this entry: Cc1nc(-c2ccc(Cc3cc(C(=O)N[C@H]4CCCC[C@@H]4O)nc(-n4cccn4)c3C)cc2)co1 [Compound 48]
Result: 59

Query: # Emax lookup, item Cn1cc(-c2cc(Cc3ccc(-c4ccn(C)n4)cc3)cc(C(=O)N[C@H]3CCCC[C@@H]3O)n2)cn1 [Compound 40]
Result: 57

Query: Recorded Emax of Cn1cc(-c2ccc(Cc3cc(C(=O)N[C@H]4CCOC[C@@H]4O)nc(-n4cccn4)c3)cn2)cn1 [Compound 18] , please.
Result: 85

Query: Emax; subject: Cc1nc(-c2ccc(Cc3cc(C(=O)N[C@H]4CCOC[C@@H]4O)nc(-n4cccn4)c3C)cc2)co1 [Compound 45]
Result: 47

Query: What does the data say about its Emax? Entry: Cc1c(Cc2ccc(-n3cccn3)cc2)cc(C(=O)NC[C@H]2CCCO2)nc1-c1ccn(C)n1 [Compound 63]
Result: 57

Query: Item under review: Cc1c(Cc2ccc(-c3ccn(C)n3)cc2)cc(C(=O)N[C@H]2CCOC[C@@H]2O)nc1-n1cccn1 [Compound 2] . Reported Emax?
Result: 78

Query: Please report the recorded Emax for Cn1ccc(-c2ccc(Cc3cc(C(=O)NC4CC5(COC5)C4)nc(-c4ccn(C)n4)c3)cc2)n1 [Compound 36] .
Result: 38

Query: What Emax value was documented for this molecule, Cc1nc(-c2ccc(Cc3cc(C(=O)N[C@H]4CCC[C@@H]4O)nc(-n4cccn4)c3)cc2)co1 [Compound 24] ?
Result: 78

Query: Fill in the blank: the reported Emax of Cn1ccc(-c2ccc(Cc3cc(C(=O)N[C@H]4CCCC[C@@H]4O)nc(-n4cccn4)c3)cc2)n1 [Compound 29] is ____.
Result: 73

Query: Look up Emax for this molecule: Cc1c(Cc2ccc(-n3cccn3)cc2)cc(C(=O)NCC2CCOCC2)nc1-c1ccn(C)n1 [Compound 61]
Result: 64
